Recorded growth at 0.1 µM for the following molecules
Test system: U-251
runDescription: Growth inhibition of human U251 cells assessed as cell growth at 10^-7 M by sulforhodamine B assay
Format: functional
assayContext: read-out: Activity
Reply numerically in %, unit not repeated.

These solved cases illustrate the format of a correct answer.
CC(C)=CC(=O)O[C@@H]1CC(C)(C)C[C@H]2C3=CC[C@@H]4[C@@]5(C)CC[C@H](O)C(C)(C)[C@@H]5CC[C@@]4(C)[C@]3(C)CC[C@@]12C(=O)O | 96
CC(C)=CC(=O)O[C@@H]1CC(C)(C)C[C@H]2C3=CC[C@@H]4[C@@]5(C)CCC(=O)C(C)(C)[C@@H]5CC[C@@]4(C)[C@]3(C)CC[C@@]12C(=O)O | 90
C/C=C(/C)C(=O)O[C@@H]1CC(C)(C)C[C@H]2C3=CC[C@@H]4[C@@]5(C)CC[C@H](O)C(C)(C)[C@@H]5CC[C@@]4(C)[C@]3(C)CC[C@@]12C(=O)O | 90

Query block: // growth at 0.1 µM lookup, key: "C/C=C(/C)C(=O)O[C@@H]1CC(C)(C)C[C@H]2C3=CC[C@@H]4[C@@]5(C)CCC(=O)C(C)(C)[C@@H]5CC[C@@]4(C)[C@]3(C)CC[C@@]12C(=O)O"
Result block: 94

Query block: // growth at 0.1 µM lookup, key: "CC1(C)C[C@@H](O)[C@]2(C(=O)O)CC[C@]3(C)C(=CC[C@@H]4[C@@]5(C)C/C(=C\C=C\c6ccccc6)C(=O)C(C)(C)[C@@H]5CC[C@]43C)[C@@H]2C1"
Result block: 95

* * *

System: TK-10
runDescription: Growth inhibition of human TK10 cells assessed as cell growth at 10 uM by sulforhodamine B assay
Type: functional
assayContext: read-out: Activity
Recorded growth at 10 µM for the following molecules
Reply numerically in %, unit not repeated.

These solved cases illustrate the format of a correct answer.
CC1(C)C[C@@H](O)[C@]2(C(=O)O)CC[C@]3(C)C(=CC[C@@H]4[C@@]5(C)CCC(=O)C(C)(C)[C@@H]5CC[C@]43C)[C@@H]2C1 | 106
COc1cc(/C=C2\C[C@]3(C)[C@H]4CC=C5[C@@H]6CC(C)(C)C[C@@H](O)[C@]6(C(=O)O)CC[C@@]5(C)[C@]4(C)CC[C@H]3C(C)(C)C2=O)ccc1O | 116
CC(C)=CC(=O)O[C@@H]1CC(C)(C)C[C@H]2C3=CC[C@@H]4[C@@]5(C)CCC(=O)C(C)(C)[C@@H]5CC[C@@]4(C)[C@]3(C)CC[C@@]12C(=O)O | 78.1
CC1(C)C[C@@H](O)[C@]2(C(=O)O)CC[C@]3(C)C(=CC[C@@H]4[C@@]5(C)CC[C@H](O)C(C)(C)[C@@H]5CC[C@]43C)[C@@H]2C1 | 99.7
C/C=C(/C)C(=O)O[C@@H]1CC(C)(C)C[C@H]2C3=CC[C@@H]4[C@@]5(C)CC[C@H](O)C(C)(C)[C@@H]5CC[C@@]4(C)[C@]3(C)CC[C@@]12C(=O)O | 66.8

Query block: // growth at 10 µM lookup, key: "C/C=C(/C)C(=O)O[C@@H]1CC(C)(C)C[C@H]2C3=CC[C@@H]4[C@@]5(C)CCC(=O)C(C)(C)[C@@H]5CC[C@@]4(C)[C@]3(C)CC[C@@]12C(=O)O"
Result block: 83.3

Query block: // growth at 10 µM lookup, key: "CC1(C)C[C@@H](O)[C@]2(C(=O)O)CC[C@]3(C)C(=CC[C@@H]4[C@@]5(C)C/C(=C\C=C\c6ccccc6)C(=O)C(C)(C)[C@@H]5CC[C@]43C)[C@@H]2C1"
Result block: 88.3

Query block: // growth at 10 µM lookup, key: "CC(C)=CC(=O)O[C@@H]1CC(C)(C)C[C@H]2C3=CC[C@@H]4[C@@]5(C)CC[C@H](O)C(C)(C)[C@@H]5CC[C@@]4(C)[C@]3(C)CC[C@@]12C(=O)O"
Result block: 79.9

* * *

Tested on: SK-MEL-28
runDescription: Growth inhibition of human SK-MEL-28 cells assessed as cell growth at 10^-6 M by sulforhodamine B assay
Assay type: functional
assayContext: read-out: Activity
outcomeMeasure: growth at 1 µM (%)
Reply numerically in %, unit not repeated.

These solved cases illustrate the format of a correct answer.
C/C=C(/C)C(=O)O[C@@H]1CC(C)(C)C[C@H]2C3=CC[C@@H]4[C@@]5(C)CC[C@H](O)C(C)(C)[C@@H]5CC[C@@]4(C)[C@]3(C)CC[C@@]12C(=O)O [Reduced Lantadene A] | 90
CC(C)=CC(=O)O[C@@H]1CC(C)(C)C[C@H]2C3=CC[C@@H]4[C@@]5(C)CCC(=O)C(C)(C)[C@@H]5CC[C@@]4(C)[C@]3(C)CC[C@@]12C(=O)O | 103
CC(C)=CC(=O)O[C@@H]1CC(C)(C)C[C@H]2C3=CC[C@@H]4[C@@]5(C)CC[C@H](O)C(C)(C)[C@@H]5CC[C@@]4(C)[C@]3(C)CC[C@@]12C(=O)O [Reduced Lantadene B] | 97
CC1(C)C[C@@H](O)[C@]2(C(=O)O)CC[C@]3(C)C(=CC[C@@H]4[C@@]5(C)C/C(=C\C=C\c6ccccc6)C(=O)C(C)(C)[C@@H]5CC[C@]43C)[C@@H]2C1 | 97

Shifting focus to the compound that follows.
Query block: // growth at 1 µM lookup, key: C/C=C(/C)C(=O)O[C@@H]1CC(C)(C)C[C@H]2C3=CC[C@@H]4[C@@]5(C)CCC(=O)C(C)(C)[C@@H]5CC[C@@]4(C)[C@]3(C)CC[C@@]12C(=O)O [LANTADENE A]
Result block: 95

* * *

System: HCT-116
runDescription: Growth inhibition of human HCT116 cells by sulforhodamine B assay
Type: functional
assayContext: read-out: TGI
Recorded TGI for the following compounds
Reply numerically in µM, unit not repeated.

These solved cases illustrate the format of a correct answer.
CC1(C)C[C@@H](O)[C@]2(C(=O)O)CC[C@]3(C)C(=CC[C@@H]4[C@@]5(C)C/C(=C\C=C\c6ccccc6)C(=O)C(C)(C)[C@@H]5CC[C@]43C)[C@@H]2C1 | 11.2
CC(C)=CC(=O)O[C@@H]1CC(C)(C)C[C@H]2C3=CC[C@@H]4[C@@]5(C)CC[C@H](O)C(C)(C)[C@@H]5CC[C@@]4(C)[C@]3(C)CC[C@@]12C(=O)O [Reduced Lantadene B] | 15.9
C/C=C(/C)C(=O)O[C@@H]1CC(C)(C)C[C@H]2C3=CC[C@@H]4[C@@]5(C)CC[C@H](O)C(C)(C)[C@@H]5CC[C@@]4(C)[C@]3(C)CC[C@@]12C(=O)O [Reduced Lantadene A] | 10.1

Shifting focus to the compound that follows.
Query block: // TGI lookup, key: "CC(C)=CC(=O)O[C@@H]1CC(C)(C)C[C@H]2C3=CC[C@@H]4[C@@]5(C)CCC(=O)C(C)(C)[C@@H]5CC[C@@]4(C)[C@]3(C)CC[C@@]12C(=O)O"
Result block: 53.5

* * *

Recorded growth at 0.01 µM for the following compounds
Test system: U-251
runDescription: Growth inhibition of human U251 cells assessed as cell growth at 10^-8 M by sulforhodamine B assay
Assay type: functional
assayContext: read-out: Activity
Reply numerically in %, unit not repeated.

C/C=C(/C)C(=O)O[C@@H]1CC(C)(C)C[C@H]2C3=CC[C@@H]4[C@@]5(C)CCC(=O)C(C)(C)[C@@H]5CC[C@@]4(C)[C@]3(C)CC[C@@]12C(=O)O [LANTADENE A] | 98
CC(C)=CC(=O)O[C@@H]1CC(C)(C)C[C@H]2C3=CC[C@@H]4[C@@]5(C)CCC(=O)C(C)(C)[C@@H]5CC[C@@]4(C)[C@]3(C)CC[C@@]12C(=O)O | 92
CC(C)=CC(=O)O[C@@H]1CC(C)(C)C[C@H]2C3=CC[C@@H]4[C@@]5(C)CC[C@H](O)C(C)(C)[C@@H]5CC[C@@]4(C)[C@]3(C)CC[C@@]12C(=O)O [Reduced Lantadene B] | 96
C/C=C(/C)C(=O)O[C@@H]1CC(C)(C)C[C@H]2C3=CC[C@@H]4[C@@]5(C)CC[C@H](O)C(C)(C)[C@@H]5CC[C@@]4(C)[C@]3(C)CC[C@@]12C(=O)O [Reduced Lantadene A] | 96

Shifting focus to the compound that follows.
Query block: // growth at 0.01 µM lookup, key: "CC1(C)C[C@@H](O)[C@]2(C(=O)O)CC[C@]3(C)C(=CC[C@@H]4[C@@]5(C)C/C(=C\C=C\c6ccccc6)C(=O)C(C)(C)[C@@H]5CC[C@]43C)[C@@H]2C1"
Result block: 92

* * *

System: BT-549
runDescription: Growth inhibition of human BT549 cells assessed as cell growth at 10^-8 M by sulforhodamine B assay
Assay type: functional
assayContext: read-out: Activity
outcomeMeasure: growth at 0.01 µM (%)
Reply numerically in %, unit not repeated.

These solved cases illustrate the format of a correct answer.
C/C=C(/C)C(=O)O[C@@H]1CC(C)(C)C[C@H]2C3=CC[C@@H]4[C@@]5(C)CC[C@H](O)C(C)(C)[C@@H]5CC[C@@]4(C)[C@]3(C)CC[C@@]12C(=O)O | 99
C/C=C(/C)C(=O)O[C@@H]1CC(C)(C)C[C@H]2C3=CC[C@@H]4[C@@]5(C)CCC(=O)C(C)(C)[C@@H]5CC[C@@]4(C)[C@]3(C)CC[C@@]12C(=O)O | 99
CC(C)=CC(=O)O[C@@H]1CC(C)(C)C[C@H]2C3=CC[C@@H]4[C@@]5(C)CCC(=O)C(C)(C)[C@@H]5CC[C@@]4(C)[C@]3(C)CC[C@@]12C(=O)O | 114

Query block: // growth at 0.01 µM lookup, key: "CC(C)=CC(=O)O[C@@H]1CC(C)(C)C[C@H]2C3=CC[C@@H]4[C@@]5(C)CC[C@H](O)C(C)(C)[C@@H]5CC[C@@]4(C)[C@]3(C)CC[C@@]12C(=O)O"
Result block: 97

Query block: // growth at 0.01 µM lookup, key: "CC1(C)C[C@@H](O)[C@]2(C(=O)O)CC[C@]3(C)C(=CC[C@@H]4[C@@]5(C)C/C(=C\C=C\c6ccccc6)C(=O)C(C)(C)[C@@H]5CC[C@]43C)[C@@H]2C1"
Result block: 101
